Experiment: E. coli acrAB mutant growth effects, primary screen, E. coli filamentation inducers, strain DRC39, OD650, 48 h (AID 1179);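 also: screen aims at cell division blockers that make cells filament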
Details: E. coli DRC39 delta-acrAB growth, higher = more signal, called active from +8 up or from −8 down
Assign 1 whenever z-score does not fall below 0.7; assign 0 whenever it does.

INSERT INTO results (compound, class_assignment) VALUES
  ('COC(=O)C(CC#Cc1ccc2c(c1)[C@]1(C(=O)N2)[C@H](C(=O)O)[C@H]2C(=O)O[C@H](c3ccccc3)[C@H](c3ccccc3)N2[C@@H]1c1ccc(OCCO)cc1)C(=O)OC', 1),
  ('COCCOC(=O)N1C(=O)[C@@]2(c3cc(C#CC4(O)CCCCCC4)ccc31)[C@H](c1ccc(O)cc1)N1[C@H](c3ccccc3)[C@H](c3ccccc3)OC(=O)[C@H]1[C@@H]2C(N)=O', 0),
  ('CCOC(=O)C[C@H]1[C@H](OC(=O)Cc2ccc3c(c2)OCO3)[C@@H](NC(=O)c2ccc3ccccc3c2)c2cc(OCCCO)ccc2N1C(=O)c1ccc2ccccc2n1', 0),
  ('C[N+](C)(C)CCCC[C@@H]1NC(=O)[C@@H]2C[C@H](C(=O)NCCCCCNC(=O)CS)[C@H](c3ccc(O)cc3)N2C1=O', 0),
  ('[N-]=[N+]=NCc1ccccc1C[C@@]1(C(=O)O)N=C(c2ccc(OCCCO)cc2)O[C@@H]1c1ccccc1', 1),
  ('COc1ccc([Si](C)(C)[C@H]2[C@H](CC(=O)N(CCO)Cc3ccccc3)O[C@@]3(C(=O)N(Cc4ccc(N5CCOC5=O)cc4)c4ccccc43)[C@@H]2C)cc1', 1),
  ('CCOC(=O)C[C@H]1[C@H](OC(=O)c2ccc(-c3ccccc3)cc2)[C@@H](NC(=O)c2ccccc2)c2cc(OCCCO)ccc2N1C(=O)c1ccccc1', 1),
  ('C=C(CCCC)/C(=C/C[C@@H](OC(=O)c1ccncc1)c1ccc(OCCO)cc1)c1cnc2ccccc2c1', 1),
  ('COCCOC(=O)N1C(=O)[C@@]2(c3cc(C#CCNC(N)=O)ccc31)[C@H](c1ccccc1OCCO)N1[C@H](c3ccccc3)[C@H](c3ccccc3)OC(=O)[C@H]1[C@@H]2C(=O)Nc1nc2ccccc2s1', 0),
  ('CC(C)N1CC=CC23O[C@@H]4/C=C\CCCOC(=O)C4[C@H]2C(=O)N(CCCO)[C@@H]3C1=O (some centres undefined)', 1),
  ('C#CCN1C(C(=O)OCC)OC[C@H]1c1ccccc1 (some centres undefined)', 1),
  ('C=C1C=C(Br)C2(OCCCO2)[C@H]2OC12 (some centres undefined)', 1),
  ('C=CCC(OC(C)=O)[C@@H]1[C@@H](N(Cc2ccc(-c3ccccc3)cc2)C(=O)c2ccc(-c3ccccc3)cc2)c2cc(OCCCO)ccc2N1C(=O)c1ccc(-c2ccccc2)cc1 (some centres undefined)', 1),
  ('C[N+](C)(C)CCCC[C@@H]1NC(=O)[C@H]2C[C@@H](C(=O)NCCCCCN)[C@@H](c3cccc(OCCO)c3)N2C1=O', 0);

Origin of measurements: PubChem BioAssay
